Test system: CAKI-1
assay method text: NCI tumour cell line growth inhibition, 48 h
Activity calls are given as the source filed them. No stated cut-off is given here; in the data, active = GI50 up to about 1.1 µM and inactive = higher.
Give GI50 for every item shown.

[
  {
    "molecule": "CN1CCc2cc(N)cc3c2C1Cc1ccc(O)c(O)c1-3 (configuration not stated)",
    "GI50": "37.2 µM (inactive)"
  },
  {
    "molecule": "CNc1nc(=O)c(C#N)c(-c2ccc(C)cc2)s1",
    "GI50": "35.6 µM (inactive)"
  },
  {
    "molecule": "Cc1ccc(OP2(=O)Oc3ccc4ccccc4c3CN2c2ccc(Cl)cc2)cc1C (configuration not stated)",
    "GI50": "> 100 µM (inactive)"
  },
  {
    "molecule": "CC(C)C(=O)Nc1nc2c(ncn2C2OC(CO)C(O)C2O)c(=O)[nH]1 (configuration not stated)",
    "GI50": "> 100 µM (inactive)"
  },
  {
    "molecule": "N#Cc1ccc(/C=[N+](/C=c2ccc(=C=[N-])cc2)N(CCO)C2=NCCN2)cc1",
    "GI50": "> 100 µM (inactive)"
  },
  {
    "molecule": "O=C(c1ccc(Cl)cc1)C1OC12C(=O)Nc1ccccc12 (configuration not stated)",
    "GI50": "6.71 µM (inactive)"
  }
]

Go through the list and state GI50 for each entry.
1. COC1(OC)C(/C(N)=C\O)=NC(C)(C)N1O
2. Cc1ccsc1/C=N/Nc1ncccn1
3. O=C1N=C(SC2OC(CO)C(O)C(O)C2O)S/C1=C\c1ccccc1 (configuration not stated)
4. O=C(Cc1ccccc1)NN1C(=O)C(Cl)C1c1cc(Br)cc(Br)c1O (configuration not stated)

A:
["> 100 µM (inactive)", "> 100 µM (inactive)", "> 100 µM (inactive)", "25.8 µM (inactive)"]

Hi team, please reply with GI50 for each item in this list.
1. O=C(c1cccs1)N1CCCN(C(=O)c2cccs2)C1=S
2. C=CCOC(OCC=C)/C(Br)=C/C

A:
> 100 µM (inactive)
16.7 µM (inactive)

* * *

Tested on: KM12
assay method text: NCI tumour cell line growth inhibition, 48 h
The source made the active and inactive calls. No stated cut-off is given here; in the data, active = GI50 up to about 1.1 µM and inactive = higher.
In this exercise, the only acceptable responses are label 1 = active, label 0 = inactive

Illustrative cases are given below, each with its answer.
[
  {
    "compound": "COC(=O)C(C)(NC(=O)C(CC(=O)OC(C)(C)C)NC(=O)OC(C)(C)C)c1ccccc1 (stereo unspecified)",
    "cat": "label 0"
  },
  {
    "compound": "COc1ccc2cc(C(=O)CCC(=O)O)ccc2c1",
    "cat": "label 0"
  },
  {
    "compound": "N[C@H]1CCC[C@@H](O)C1O (stereo partly specified)",
    "cat": "label 0"
  },
  {
    "compound": "CC(=O)OC/C=C/Cn1nc(Br)c(=O)[nH]c1=O",
    "cat": "label 0"
  }
]

Q: Check the results log: what was the call for COc1ccc(-c2nc3c(nc2-c2ccc(OC)cc2)C(N)=NS(=O)(=O)N3)cc1 ?
A: label 0

Q: Recorded test call requested for O=Cc1ccc2c(c1-c1c(C=O)ccc3c1OCO3)OCO2
A: label 0

Q: // param item: CCOC(=O)C1(C(N)=O)C(=O)c2ccncc2C1=O (stereo unspecified) ; yields the recorded call
A: label 0

Q: Call for entry C=CN1C(=O)[C@H](Oc2ccccc2)[C@@H]1c1ccccc1 :
A: label 0

Q: State the result this test recorded for CC1CN=C(N(C(=O)Nc2ccc(F)c(Cl)c2)c2ccccc2)S1 (stereo unspecified) .
A: label 0

* * *

Tested on: Malme-3M
assay method text: NCI tumour cell line growth inhibition, 48 h
Activity calls are given as the source filed them. No stated cut-off is given here; in the data, active = GI50 up to about 1.1 µM and inactive = higher.
// one of 1 (yes) (active), 0 (no) (inactive), no free text

[
  {
    "compound": "CC(C)N/C(N)=N/C#N",
    "cat": "0 (no)"
  },
  {
    "compound": "COc1ccc(-n2c(=O)[nH]n(C(C)=O)c2=O)cc1",
    "cat": "0 (no)"
  },
  {
    "compound": "CC1(C)CC(=O)C2=C(C1)S/C(=C1/SC3=C(S1)C(=O)CC(C)(C)C3)S2",
    "cat": "0 (no)"
  }
]

Q: Hi, do you know how COc1ccc(C[C@@H](CO)NC2=C(C#N)CCC2)cc1 came out in this test?
A: 0 (no)

Q: For this compound, state the assay outcome: COC(=O)c1cccc2cccc(C(=O)Nc3ccc(C)cc3C)c12
A: 0 (no)

Q: Please state the recorded outcome for this compound: Cc1cccc(NC(=S)N/N=C(/c2ccccc2)c2ccccn2)c1
A: 1 (yes)

* * *

System: SN12C
assay method text: NCI tumour cell line growth inhibition, 48 h
Active and inactive are the calls of the source. No stated cut-off is given here; in the data, active = GI50 up to about 1.1 µM and inactive = higher.
Hi there, I'd appreciate the recorded GI50 for every entry that follows.

Solved entries:
[
  {
    "mol": "COC1(OC)C(/C(N)=C\\O)=NC(C)(C)N1O",
    "result value": "> 100 µM (inactive)"
  },
  {
    "mol": "CCN(CC)CCNc1ccc2nnn3c4ccc(OC)cc4c(=O)c1c23",
    "result value": "5.96 µM (inactive)"
  },
  {
    "mol": "COc1ccc(/N=C(Nc2ccc(OC)cc2)/C(=N/c2ccc(OC)cc2)Nc2ccc(OC)cc2)cc1",
    "result value": "> 100 µM (inactive)"
  }
]

Below are 2 molecules. Give each one its GI50.
1. CC(=O)Nc1ccc(S(=O)(=O)/N=C2\C=CC(=O)c3ccccc32)cc1
2. O=C1N[C@@H](O)[C@@H]2ON=C(c3ccccc3)[C@H]12

A:
1: 4.92 µM (inactive); 2: > 100 µM (inactive)

* * *

Test system: A549
assay method text: NCI tumour cell line growth inhibition, 48 h
Calls of active or inactive are those of the source. Cut-off read from the data, not from the text of the source: active = GI50 up to about 1.1 µM and inactive = higher.
Tick one outcome: active, inactive

Completed entries (count: 2):
[
  {
    "molecule": "O=c1[nH]ncc2[nH]c3c4ccccc4ccc3c12",
    "cat": "inactive"
  },
  {
    "molecule": "CCCCN(Cc1ccccc1)/C(=N/C#N)N(Cc1ccccc1)Cc1ccccc1",
    "cat": "inactive"
  }
]

Q: What classification did COC(=O)C1=C(C)N(NC(N)=O)C2(N)N(NC(N)=O)C(C)=C(C(=O)OC)C12C(=O)OC (stereo not given) end up with in this test?
A: inactive

Q: Assay outcome for COc1ccccc1NC(=S)N/N=C(/c1ccccc1)c1ccccn1 : what was it?
A: active

Q: Answer briefly: the call reported for CCOC(=O)c1sc2nc(SC)nc(Nc3ccc(OC)c(OC)c3)c2c1N in this assay.
A: inactive

Q: Given COc1ccc(C[C@@H](CO)NC2=C(C#N)CCC2)cc1 , state the outcome it received in this test.
A: inactive

Q: What did this assay record as the result for OC1/C(=C/c2ccccc2)CNC/C1=C\c1ccccc1 (stereo not given) ?
A: inactive

Q: Returns: the outcome recorded for Cn1c(=O)c(C(=O)NC(=O)NCCCCCOC(=O)CCCCCCCCCCC(=O)OCCCCCNC(=O)NC(=O)c2cn(Cc3ccccc3)c(=O)n(C)c2=O)cn(Cc2ccccc2)c1=O in this assay.
A: inactive

Q: What did the test return for C/C(CC(=O)Nc1cccc(Cl)c1C)=N\NC(=O)c1ccncc1 ?
A: inactive

Q: Please indicate how the test categorized Cn1cc(-c2ccc(CCOC3CCCCO3)cc2)c2c(C#N)cccc21 (stereo not given) .
A: inactive

* * *

Tested on: HOP-18
assay method text: NCI tumour cell line growth inhibition, 48 h
The source made the active and inactive calls. No stated cut-off is given here; in the data, active = GI50 up to about 1.1 µM and inactive = higher.
Assign a class; possible classes are active, inactive

Example results:
[
  {
    "molecule": "CC(C)N/C(N)=N/C#N",
    "experimental target": "HOP-18",
    "cat": "inactive"
  },
  {
    "molecule": "Cc1ccc(OP2(=O)Oc3ccc4ccccc4c3CN2c2ccc(Cl)cc2)cc1C (stereo unspecified)",
    "experimental target": "HOP-18",
    "cat": "inactive"
  },
  {
    "molecule": "NC(=O)N1N=C2c3ccccc3OC[C@H]2[C@@H]1c1ccccc1",
    "experimental target": "HOP-18",
    "cat": "inactive"
  },
  {
    "molecule": "COC1(C)CNCC(C)(C)NC(=O)C(C)(OC)CNCC(C)(C)NC1=O (stereo unspecified)",
    "experimental target": "HOP-18",
    "cat": "inactive"
  },
  {
    "molecule": "CC(=O)CC(=O)CCC(=O)Nc1cccc(C(F)(F)F)c1",
    "experimental target": "HOP-18",
    "cat": "inactive"
  }
]

Q: Hi, do you know how CC1(Br)CC2OC3(Br)C=CC(C)(O)C2(CC1=O)C3(C)C (stereo unspecified) came out in this test?
A: inactive

Q: // param item: O=C1c2ccccc2C(=O)c2nc(-c3ccccc3)c(-c3ccccc3)nc21 ; yields the recorded call
A: inactive

Q: Lab log entry: CCN(CC)CCNc1ccc2nnn3c4ccc(OC)cc4c(=O)c1c23 — outcome as called in the assay?
A: active

Q: Check the results log: what was the call for c1ccc2cc3c(cc2c1)OP1(Oc2cccc4cccnc24)(O3)Oc2cc3ccccc3cc2O1 ?
A: inactive
